target: T1, biotin-labeled human PD-1 Fc protein (human, biotin-labeled (sites not given)); assay: competition ELISA: blocks biotin PD-1-Fc binding to coated PD-L1-Fc
T1 construct: also called PD-1-Fc-biotin
pIC50: −log10 of the molar value.
readoutLabel: pIC50

* mouse anti-PD-1 monoclonal antibody C1C5 (antibody, mouse IgG1, kappa, V domains shown, Purified from hybridoma; Constant regions tied only generically to 'mouse antibodies') VH: QIQLVQSGPELKKPGETVKISCKASGYTFTNYGINWVKQAPGKGLKWMGWINTYSGEPTYSDDFKGRFAFSLETSASTAYLQINNLKNEDTSTYFCVRQGDFDYEDAMDYWGQGTSVTVSS VL: DVLMTQSPLSLPVSLGDQASISCRSSQSIVHSNGHIYLEWYLQKPGQSPKLLIYKVSKRFSGVPDRFSGSGSGTDFTLKISRVEAEDLGVYYCFQGSHGTFGGGTKLEIKR | 9.64
* mouse anti-PD-1 monoclonal antibody C1F5 (antibody, mouse IgG1, kappa, V domains shown, Purified from hybridoma; Constant regions tied only generically to 'mouse antibodies') VH: EVQLVESGGGLVKPGGSLKLSCAASGFAFSSYDMSWVRQTPEKRLEWVAYITGGGSSSFYPDTVKGRFTISRDNSKNTLYLQMTSLRSEDTAMYYCASPYLSYFDYWGQGTTLTVSS VL: DIVLTQSPATLSVTPGDSVSLSCRASQSISNNLHWYQQKSHESPRLLIKYGSQSMSGIPSRFSGSGSGTDFTLVINSVETEDFGMYFCQQSNSWPLTFGAGTKLELKR | 9.68
* mouse anti-PD-1 monoclonal antibody C1A1 (antibody, mouse IgG1, kappa, V domains shown, Purified from hybridoma; Constant regions tied only generically to 'mouse antibodies') VH: QVTLKESGPGILKPSQTLSLTCSFSGFSLSTSGMGVGWIRQPSGKGLEWLAHIWWDDDKFYNPSLKSQLTISKDTSRNQVFLKITSVDTADTATYYCARTGGFITTGYWYFDVWGAGTTVTVSS VL: DIQMTQTTSSLSASLGDRVTISCRASQDISNYLIWYQQKTDGTLKLLIYYTSRLHSGVPSRFSGSGSGTDYSLTISNLEQEDIATYFCQQHKTLPWTFGGGTKLEIKR | 9.57
* mouse anti-PD-1 monoclonal antibody 2G2 (antibody, mouse IgG1, kappa, V domains shown, Purified from hybridoma; Constant regions tied only generically to 'mouse antibodies'; also called Clone 2G2) VH: EVQLVESGGDLVKPGGSLKLSCTASGFTFSYYGMSWVRQTPDKRLEWVATISSGSSFTYSPDSVKGRFTISRDNAKNTLYLQMNSLKSEDTAIYYCTRREGIYDASWDYSMDYWGQGTSVTVSS VL: DVLMTQTPLSLPVSLGDQASISCRSSQSIIRSNGNTYLEWYLQKPGQSPKLLIYKVSNRFSGVPDRFSGSGSGTDFTLKISRVEADDLGLYYCFQGSHVPWTFGGGTKLEIKR | 9.49
* mouse anti-PD-1 monoclonal antibody C1F4 (antibody, mouse IgG1, kappa, V domains shown, Purified from hybridoma; Constant regions tied only generically to 'mouse antibodies') VH: QVQLQQSGAELVRPGVSVKISCKGSGYKFTDYAMHWVRQSHAKSLEWIGIISTYSGDVSFNQNFKGKATMTVDKSSSTAYMELARLTSEDSAIYYCSRLGITAGFAYWGQGTLVTVSA VL: DIVMTQSQKFMSTSVGDRVTITCKASQNVRTAVAWYQQKPGQSPKALIYLASNRHTGVPDRFTGSGSGTDFTLTISNVQSKDLADYFCLQHWNYPYTFGGGTKLEIKR | 9.37
